- Organism: Rattus norvegicus
- method: DrugMatrix - Regimen: Daily Repeat
- Type: toxicity, organism-based, Sprague-Dawley
- Set-up: regimen Daily Repeat, gender Male, age 6-8 weeks
- condition summary: in vivo, po, 0 mg/kg, 72 h, tissue Plasma, route oral GAVAGE, dose level Control, time 3 day, vehicle 100 % WATER
Entries annotated with measured ASPARTATE AMINOTRANSFERASE
Provide the reading as a plain figure in u/L.

Examples with answers:
molecule | unit label | ASPARTATE AMINOTRANSFERASE
Cc1onc(-c2ccccc2Cl)c1C(=O)N[C@@H]1C(=O)N2[C@@H]1SC(C)(C)[C@@H]2C(=O)O [CLOXACILLIN] | u/L | 89
C[C@H]1c2cccc(O)c2C(=O)C2=C(O)[C@]3(O)C(=O)C(C(N)=O)=C(O)[C@@H](N(C)C)[C@@H]3[C@@H](O)[C@@H]21.O [DOXYCYCLINE] | u/L | 81.83
CNNCc1ccc(C(=O)NC(C)C)cc1 [PROCARBAZINE] | u/L | 82.17
C[C@H](CS)C(=O)N1CCC[C@H]1C(=O)O [CAPTOPRIL] | u/L | 118
C[C@](N)(Cc1ccc(O)c(O)c1)C(=O)O [METHYLDOPA] | u/L | 92.33
N[C@@H](Cc1ccc(O)c(O)c1)C(=O)O [LEVODOPA] | u/L | 81.83

Clc1cccc(Cl)c1N=C1NCCN1 [CLONIDINE] yielded ASPARTATE AMINOTRANSFERASE of 86.5

c1ccc([C@H]2CN3CCSC3=N2)cc1 [LEVAMISOLE] yielded ASPARTATE AMINOTRANSFERASE of 103.17

CC(O)CO (stereo not given) [PROPYLENE GLYCOL] yielded ASPARTATE AMINOTRANSFERASE of 89

Cn1cc[nH]c1=S [METHIMAZOLE] yielded ASPARTATE AMINOTRANSFERASE of 87.5

CN(C)CCCN1c2ccccc2Sc2ccc(Cl)cc21 [CHLORPROMAZINE] yielded ASPARTATE AMINOTRANSFERASE of 85.33

Nc1c2c(nc3ccccc13)CCCC2 [TACRINE] yielded ASPARTATE AMINOTRANSFERASE of 66

COc1cc2nc(N3CCN(C(=O)C4COc5ccccc5O4)CC3)nc(N)c2cc1OC (stereo not given) [DOXAZOSIN] yielded ASPARTATE AMINOTRANSFERASE of 81.83

NCCCCCC(=O)O [AMINOCAPROIC ACID] yielded ASPARTATE AMINOTRANSFERASE of 89

C=CCC1(C(C)CCC)C(=O)NC(=O)NC1=O (stereo not given) [SECOBARBITAL] yielded ASPARTATE AMINOTRANSFERASE of 84
